Test: soluble on expression in E. coli; label from the status in PepcDB or PDB records
Endpoint label: soluble on expression in E. coli

# Sequence content, Measured value
data = [
    ("MNAQIKIINTANGYMALCQDTPEDITPAWFSVDFWREKSAVVGSSKGRYTTWFVAFEHSHWVLRHYWRGGMMEKFSKDAYFYTGLENTRAMGELRLLDALYREQFAVPKPIAANIVRDGLFYRADIIIERVDGAEDLVAKLTKGTMTQAQWHALGATIAQFHRRGVYHADLNAKNILWQPQQTDSAQERFYLIDFDRGELKTPNAKWQKANLDRLLRSFNKEQGKQPTLAFTPANWAALLEGYHAVVPKVAAALEHHHHHH", "soluble"),
    ("SMSMKATRLAIPDVILFEPRVFGDDRGFFFESYNQRAFEEACGHPVSFVQDNHSRSARGVLRGLHYQIRQAQGKLVRATLGEVFDVAVDLRRGSPTFGQWVGERLSAENKRQMWIPAGFAHGFVVLSEYAEFLYKTTDFWAPEHERCIVWNDPELKIDWPLQDAPLLSEKDRQGKAFADADCFP", "soluble"),
]

###

Assay: soluble on expression in E. coli; label from the status in PepcDB or PDB records
Endpoint label: soluble on expression in E. coli

# Sequence content, Measured value
records = [
    ("MVKLMEVYEGKAKKMIPIDDDKLIMEFKDDATAFDGTKKARFKGKGWLNAQLSVIFFKLLEEHGIKTHFIGVAGGNRLIVEKLDMYPLEVVVRNVVAGSLKKRLPLPEGYELPEPIVELYYKNDELHDPMINYYHAKVLGISLDEIKKIEEIALKVNEILKDYLAKKGIILVDFKLEFGKDKNGDIVLADEISPDTCRFWDAKTKRSLDKDVFRFDKGDLIEAYKEIYERITGEKPEF", "soluble"),
    ("MSLTTRVIALDLDGTLLTPKKTLLPSSIEALARAREAGYQLIIVTGRHHVAIHPFYQALALDTPAICCNGTYLYDYHAKTVLEADPMPVIKALQLIEMLNEHHIHGLMYVDDAMVYEHPTGHVIRTSNWAQTLPPEQRPTFTQVASLAETAQQVNAVWKFALTHDDLPQLQHFGKHVEHELGLECEWSWHDQVDIARGGNSKGKRLTKWVEAQGWSMENVVAFGDNFNDISMLEAAGTGVAMGNADDAVKARANIVIGDNTTDSIAQFIYSHLIEGHHHHHH", "soluble"),
    ("MEDFKSGDLILGYYKVLEKLGEGNFGKVYKVEALKGRYKGKVFALKVASNPYSVHYLWKEAQTLILFHHQNIVSLQSYLYKKDKKELYLIYEYMDFGTLKDYVEKKGKLSPEEALKVLRHVVNALEYLHSRGYIHSDLKPENVFGKRVLGGVLWKLGDFSLVRIRGDVSIIDVKGTIGFIAPEIFRGEIHRSSDIYSLGCLTLYMLTGKVPFEGKDFKERKEKNKRGEVEIPEEIPGKLKDLLERMLEVDYKRRFRTARELKEYMVKEGLI", "soluble"),
]

###

Experiment: soluble on expression in E. coli; label from the status in PepcDB or PDB records

# Sequence content, soluble on expression in E. coli
data = [
    ("MGSDKIHHHHHHMELKKLDEGLFWPDYKNSIVNFSNSILELFDEKPLHRPFRFPKRVLENVRKVIVMVIDGLSFEIFSDTIHDDDVQVFPCSAVFPTTTAAALPSLYSALTPLEHGFLGYILYLREVGSLVNMIEMSPPGLPRDSVLRFHDFKFTTIFQRLQSKVKSFFLIPRYLLGTGFSRIMSQGSEQIGFSSFGDMIERTLEVLEKHDRTLVFIYWPTLDSIAHKNGVGREYIRELRWIYRILKSELLRRLKQDTLFFLVSDHGQISTPQDNEIWWNFSSEVMRFLDRPPAGEQRMMFLYTKKKRALIEYLKEKYGDFAVFLDTKDVVQLFGTGRKHPEFFSRVGDAVLITRETFSFNYRYTGKEESLSGRHGSLSYQELVVPLVVYRRW", "not soluble"),
    ("MKLAKRVAALTPSATLEITAKAQALKAEGHDVIGLGAGEPDFNTPEHIMDAAHKAMLEGHTKYTPTGGLQALKQEIVKKFTRDQGIAYDPSEIIVCNGAKHALYTLFQVLLDEGDEVIIPTPYWVSYPEQVKLAGGKPVYVEGLEGNEYKITAEQLREAITEKTKAVIINSPSNPTGMIYSKEELQQLGEVCLEHDILIVSDEIYEKLIYGGAEYTSIAQLSNALKEQTLIINGVSKSHSMTGWRIGYAAGNKQLIKAMTNLASHSTSNPTSIAQYGAIAAYAGSQEPVETMRQAFEERLNIIYDKLIQIPGFTCIKPQGAFYLFPNVKEAVALSGYETVDEWAKALLEEEKVALVPGTGFGAPNNVRLSYATSLEQVEKALERIHTFMKSKVQA", "not soluble"),
]

###

Experiment: soluble on expression in E. coli; label from the status in PepcDB or PDB records

# Sequence content, soluble on expression in E. coli
records = [
    ("MGLSPGQTSVSFLWPLLEVRDHNTGRGLVPATVLTPGSPETLLELRQAFLGSRQARHGHDAAPSSGQQGCSVDRTAGRPVLGWRLRNSLTGQEGRQHLHLSGIRTSRKAKEYKPVFFGATEISVLMAVAESLREPPPPQWGWFLSSLFLKIF", "not soluble"),
    ("MGSDKIHHHHHHMPGNSSGVAAVERAVSMLEAFTDVDYSLTLGELARRTELDKSTVLRIARSLAKSSMLVRNDDASWRLGPKLVRLGGLYQSTFKSSAIVEPLLAQISDESGESAAVYVKEGVVRVCLHRHDSTQSIRHSARVGDAMPLDRGAPGRVILAFTGSSGKLYDDIRAKGFHVTIGERDPQVASVAVPVYRDGQALFGSLALTGPPSRFNEEAVSKNLEILRVAARKLSAALGGDPG", "not soluble"),
]

###

Assay: soluble on expression in E. coli; label from the status in PepcDB or PDB records
Endpoint label: soluble on expression in E. coli

# Sequence content, soluble on expression in E. coli
records = [
    ("MGSDKIHHHHHHQPGATGGTWTCCPVSWRAFQSNCYFPLNDNQTWHESERNCSGMSSHLVTINTEAEQNFVTQLLDKRFSYFLGLADENVEGQWQWVDKTPFNPHTVFWEKGESNDFMEEDCVVLVHVHEKWVWNDFPCHFEVRRICKLPGITFNWKPSK", "not soluble"),
    ("MGSDKIHHHHHHMSHKPSAEDKEKSKLTKEEWRDYTKTVWSIANTSHEDHPAVFPLEIPHRLTKLFSFYGETVLDPFAGTGTTARAAIPLGRRAICVDQNADYTEIIKKDCAKLRNGHGADFEPLVVVNGDSRKMDFVESDSVGLVVTSPPYWNKADYGDSKRNLGTIERYSDFIEGIRPVFEECYRILTPGRKLCVVTANVNQHTDHGLLTFPLATDFAVLLRQIGFVMINEIIWSKDATGGKWGSYGAQRPIFGSYPYPPNFLFKNVHEYILIFAKPPRTKTTGPKVQPYKKLVEGLTGGIMEPDSLPAYAQAFRQQ", "not soluble"),
    ("MEVAPSFSSVLKDCAVIEGQDFVLQCSVRGTPVPRITWLLNGQPIQYARSTCEAGVAELHIQDALPEDHGTYTCLAENALGQVSCSAWVTVH", "soluble"),
    ("MPVAIVTGASSGIGRAAALLLARNNYKLSLTGRNVAALNELAGQIVSAGSDKNDVLVTAVELASEEAPKTIVDATVQKFGRIDTLINSAGILRAGPVLDSGIEVYDELMNVNVRSLIRLTRAALPHIITTKGTVVNVSSINGPCPFPNVTYYCMSKSAVDQFTKCLALEMAPNGVRVNAVCPGVTVTNLHRTSGQDETTYSAFLERSKTTHALGRPGDANEVAEAIYFLASEKSSFTTGELLRVDGGRGIMHPR", "soluble"),
    ("MGSDKIHHHHHHMTQVIPPRCDTCACDDADWCHLQETTKLLLLATAQIELSLTDGDHNVTGLGQLFTQMAGHLTEVNRHLHGTADTPAAILAHSDSLMQAIDSGVMAFQFYDRISQRLNHVITALSLMEAMLGDEQRRHSQAAWTNLQGEIQAHYSLDCERQMFAALLEGVPIHEALNAYRETHLHQTKQDVELF", "not soluble"),
]

Prompt: Recorded soluble on expression in E. coli of MGSDKIHHHHHHMDGGFMQKKVLLVGLGVMGSRIAANFASAGKLAGVYDRNVDKAKNTASMLKVGFYRDLGEAVKNSDIIVTMLYDDRSVKEVYSQMEQGVQGKVFIDMSTISPDTSIEIAKRIKEKGGKMYDAPVIGTSIAVEKKALVVLVGGDLSGYDEVRDLISATANQVVYMGDNGSGLYAKLVNNLFLGSYMASLAEAVRFGRKNGIPDSTISDVLTKYSSARSPTSDLKVPKMISEDYSVQFSIKNMLKDMEIVDRMASEKRIALPVASLALQLFRYLMDSGYGEEDIAAIYRALR , please.
Completion: not soluble

Prompt: Recorded soluble on expression in E. coli of MKITREELAVQVDVAQWSWLRAHLERGGLIVVNRGLDLVEVGVSIASDDTAVVGDWIQTGLLAKPSAEQISAWDANEEISFSALIISPYVLIQEQKQ , please.
Completion: not soluble

Prompt: Recorded soluble on expression in E. coli of MNIILKISGKFFDEDNVDNLIVLRQSIKELADNGFRVGIVTGGGSTARRYIKLAREIGIGEAYLDLLGIWASRLNAYLVMFSLQDLAYMHVPQSLEEFIQDWSHGKVVVTGGFQPGQSTAAVAALVAEASSSKTLVVATNVDGVYEKDPRIYADVKLIPHLTTQDLRKILEGSQSVQAGTYELLDPLAIKIVERSKIRVIVMNYRKLNRIIDILKGEEVSSIIEPV , please.
Completion: soluble

Prompt: Recorded soluble on expression in E. coli of MKIRIFVPQNKFMNREMLYNDLSGFLAMHFPCKVQKISINAGFTCPNRDGSVGYGGCTYCNNQTFNPAYCHTGKSVAQQLEEGKRFFVRKYPEMKYLAYFQAYTNTYGELEELKRKYEEALMVEDVVGLVIGTRPDCMPISLLDYLEDLGKRTFVLVEYGIESTDDETLRRINRGHTFAVSAEAVRKTAERGILVGGHIILGLPGEEREMLIRQAGVLSQLPLTTLKLHQLQLIKGTRMASEYVKEPEAFHLYTADEYVDLVIDYIEHLRPDIVLERFVSQSPKELLIAPDWGLKNYEFTDKVKKRMREKDAWQGKYYKY , please.
Completion: not soluble

Prompt: Recorded soluble on expression in E. coli of MIRLVAFDLDGTIGDTIPLCLAAFREATTPYVDHELSDDEIARTFGLNEEGMINQVVYGDSREKALNDFYVIYEEMHAILCPKPFEGMKTLIGQLHERNVIVVLITGKGIRSCDITLKQFGMDGCFDRIETGSSEKNRKSEAMKDILLYYGFKSNEMIYVGDAVSDIEACYFVKIQCLSAAWAASTDCEQLEKYNSGYVFSSVRLLRDFL , please.
Completion: not soluble

Prompt: Recorded soluble on expression in E. coli of VSAASLSKSAPAEPQPGPPQPAAGPQALPAIGGLTPFSSVDWPGQLAAVVFIAGCPWRCHYCHNPHLQERARGLDWREVLDFLGRRRNLLDAVVFSGGEPLSEPRLPQLIDAARALGLRIGLHTGGIYPARFAEVLPRLDWVGLDIKTTAPRYDALTGRRGSAAPVDACLDLLLRSHCAFECRTTWHPDWLPEPQLLALAQSLCSRGVKHYAIQAYRSAPGTLATALPSEATQHALAACFSSFSCR , please.
Completion: soluble

Prompt: Recorded soluble on expression in E. coli of SLLEECDFPTVKDIENEFEQLKEKNVRAVARLITMAEEQAKTKEAAVTLDDKLVSLKKLNQPSPPVLGITGTGGAGKSSLTDELVRRFLNEFTDKTVAILSIDPTKQKTGGALLGDRIRMNAIHSPRVFMRSLATRGSRTEISESIRDAIAVVKAAAYDLVIVETSGIGQGDAEITEIADISMYVMTSEYGAPSQLEKIDMIDFADVIAINKFDRKGSEDALRHVRKQYQRSHQRFDEPLEAMPVYGTIASQFNDIGTNTLFAAVIDILNKKCKTSWDTSIETSKEVMKQNIIIPPERTQYLRDIVQTVKQYK , please.
Completion: soluble
